- Test system: MDA-MB-435
- test.summary: NCI tumour cell line growth inhibition, 48 h
parameter.measured: TGI (µM)

[[record]]
molecule = "O=S(=O)(c1cnccc1N1CCN(CCO)CC1)N1CCCC1"
unit_string = "µM"
modifier = ">"
readout_value = 100

[[record]]
molecule = "CN(C)/N=C1\\CC(c2ccccc2)C(C#N)(C#N)C1(C#N)C#N (stereo not drawn)"
unit_string = "µM"
modifier = "="
readout_value = 81.8

[[record]]
molecule = "O=C1C(CN2CCOCC2)CCCC1CN1CCOCC1 (stereo not drawn)"
unit_string = "µM"
modifier = "="
readout_value = 27.5

[[record]]
molecule = "CC(=N\\N)/C(C)=N/N=C(C)/C(C)=N/N=C(C)/C(C)=N/N"
unit_string = "µM"
modifier = ">"
readout_value = 100

[[record]]
molecule = "O=C1NC(=NCCCc2ccccc2)S/C1=C\\c1ccc2ncccc2c1"
unit_string = "µM"
modifier = ">"
readout_value = 18

[[record]]
molecule = "O=c1[nH]cnc2c1nnn2CCCCCCCCCCCCn1nnc2c(=O)[nH]cnc21"
unit_string = "µM"
modifier = ">"
readout_value = 100

[[record]]
molecule = "Cn1c(N/N=C/c2ccccc2)nc(-c2ccc([N+](=O)[O-])cc2)c(C#N)c1=O"
unit_string = "µM"
modifier = ">"
readout_value = 100

[[record]]
molecule = "CC1=NC(=Cc2ccc([N+](=O)[O-])cc2)C(=O)N1n1c(-c2ccccc2)nc2ccccc2c1=O"
unit_string = "µM"
modifier = ">"
readout_value = 100

[[record]]
molecule = "COc1cc2c3c(n(C)c(=O)c2cc1OC)-c1ccc(C#N)cc1C3=O"
unit_string = "µM"
modifier = ">"
readout_value = 100

[[record]]
molecule = "N#C/C(=C/NC(=S)c1ccncc1)C(N)=O"
unit_string = "µM"
modifier = ">"
readout_value = 100

[[record]]
molecule = "Cn1cc(C2=C(c3cn(CCCCCSC(=N)N)c4ccccc34)C(=O)NC2=O)c2ccccc21"
unit_string = "µM"
modifier = "="
readout_value = 4.07

[[record]]
molecule = "Cc1ccc2c(c1)C(=O)C(C1OC(=O)c3ccccc31)C2 (stereo not drawn)"
unit_string = "µM"
modifier = ">"
readout_value = 100

[[record]]
molecule = "CN1C(=O)C2(c3ccccc31)N(c1ccc(Cl)cc1)C(=O)C2(c1ccccc1)c1ccccc1 (stereo not drawn)"
unit_string = "µM"
modifier = ">"
readout_value = 100

[[record]]
molecule = "COc1ccc(N=N/C(C(=O)C(F)(F)F)=C(\\O)c2ccc(Cl)cc2)cc1"
unit_string = "µM"
modifier = "="
readout_value = 8.77

[[record]]
molecule = "COc1cc(-c2nn(-c3cccc(NC(=O)c4ccc(Cl)c(C(F)(F)F)c4)c3)cc2-c2ccncc2)ccc1Cl"
unit_string = "µM"
modifier = "="
readout_value = 1.79

[[record]]
molecule = "O=[N+]([O-])c1cccc(C2CC(c3ccccc3)=Nc3ccccc3S2)c1 (stereo not drawn)"
unit_string = "µM"
modifier = "="
readout_value = 37.7

[[record]]
molecule = "COc1cc(C2c3cc4c(cc3OC(NCCO)C2C)OCO4)cc(OC)c1OC (stereo not drawn)"
unit_string = "µM"
modifier = "="
readout_value = 0.463

[[record]]
molecule = "CN(C)c1cccc(NC2=NCCO2)c1"
unit_string = "µM"
modifier = "="
readout_value = 42.9

[[record]]
molecule = "CCCC(CCN)(CCN)[N+](=O)[O-]"
unit_string = "µM"
modifier = ">"
readout_value = 100

[[record]]
molecule = "N#CC1c2ccccc2C=CN1C(=O)N(c1ccccc1)c1ccccc1 (stereo not drawn)"
unit_string = "µM"
modifier = "="
readout_value = 3.81

[[record]]
molecule = "CN(CC(=O)N(Cc1ccc(C2CCCCC2)cc1)c1ccc(C(=O)O)cc1)S(=O)(=O)c1c(F)c(F)c(F)c(F)c1F"
unit_string = "µM"
modifier = "="
readout_value = 3.19

[[record]]
molecule = "Cc1ccc(S(=O)(=O)NC(CN)C(=O)O)cc1 (stereo not drawn)"
unit_string = "µM"
modifier = ">"
readout_value = 100

[[record]]
molecule = "COC(=O)C=Cc1ccc2nncnc2c1 (mixture of isomers)"
unit_string = "µM"
modifier = "="
readout_value = 35.5

[[record]]
molecule = "C#CCOc1ccc2ncnc(Nc3ccc(NC(=O)C=C)cc3)c2c1"
unit_string = "µM"
modifier = ">"
readout_value = 100

[[record]]
molecule = "CC(C)C1N(C)c2ccc(Cl)cc2[C@H]2c3ccccc3CCN12 (stereo partly drawn)"
unit_string = "µM"
modifier = "="
readout_value = 61.6

[[record]]
molecule = "CCOC(=O)COc1ccc2c(C)cc(=O)oc2c1"
unit_string = "µM"
modifier = ">"
readout_value = 100

[[record]]
molecule = "CN1CCN(CCCOc2cccc3nc(Nc4ccc(Cl)c(C(F)(F)F)c4)ccc23)CC1"
unit_string = "µM"
modifier = "="
readout_value = 3.23

[[record]]
molecule = "CCN1CCN(C(=O)[C@]23CCC(C)(C)C[C@@H]2C2=CC[C@@H]4[C@@]5(C)C/C(=C/c6ccncc6)C(=O)C(C)(C)[C@@H]5CC[C@@]4(C)[C@]2(C)CC3)CC1"
unit_string = "µM"
modifier = "="
readout_value = 2.81

[[record]]
molecule = "CCCCCCCCCCCCCC[C@@H](O)[C@H]1CC[C@H]([C@H]2CC[C@H]([C@H](O)CCCCCC[C@@H](O)CC3=C[C@H](C)OC3=O)O2)O1"
unit_string = "µM"
modifier = ">"
readout_value = 25

[[record]]
molecule = "CC[n+]1c(/C=C/C=C2\\N(C)c3ccccc3C2(C)C)sc2ccccc21"
unit_string = "µM"
modifier = "="
readout_value = 7.66

[[record]]
molecule = "CCN(CC)c1ccc(/C=C/C=C2C(=O)NC(=S)NC2=O)cc1"
unit_string = "µM"
modifier = "="
readout_value = 34.7

[[record]]
molecule = "CC1=C(Nc2ccc(N3CCN(C)CC3)cc2)C(=O)c2cncnc2C1=O"
unit_string = "µM"
modifier = "="
readout_value = 3.4

[[record]]
molecule = "CCOC(=O)c1cnc2c(C)cccc2c1Nc1ccc(C(C)=O)cc1"
unit_string = "µM"
modifier = ">"
readout_value = 100

[[record]]
molecule = "O=C1Nc2ccccc2/C1=c1\\[nH]c(=O)/c(=C\\c2ccc(OCc3ccccc3)cn2)[nH]c1=O"
unit_string = "µM"
modifier = ">"
readout_value = 100

[[record]]
molecule = "CSC(=Nc1ccccc1)/N=C(\\SCc1ccccc1)N(C)C"
unit_string = "µM"
modifier = "="
readout_value = 2.48

[[record]]
molecule = "O=C(Nc1nc2ccccc2s1)Nc1ccc([N+](=O)[O-])cc1Cl"
unit_string = "µM"
modifier = "="
readout_value = 14.2

[[record]]
molecule = "CSc1c(C(=O)Nc2ccc(Cl)cc2)c(N)n(N)c(=O)c1C#N"
unit_string = "µM"
modifier = ">"
readout_value = 100

[[record]]
molecule = "COc1cc(-c2ccccc2N)c2cccnc2c1OC"
unit_string = "µM"
modifier = "="
readout_value = 21.1

[[record]]
molecule = "COc1ccc(/C(C#N)=C2C=C/C(=N/O)c3ccccc3\\2)cc1"
unit_string = "µM"
modifier = "="
readout_value = 0.179

[[record]]
molecule = "CSC1NC(c2ccc(Cl)cc2)=C(C#N)C(=O)N1C1OCC(OC(C)=O)C(OC(C)=O)C1OC(C)=O (stereo not drawn)"
unit_string = "µM"
modifier = ">"
readout_value = 100

[[record]]
molecule = "C=CC(=O)N1CC2(CC(n3nc(-c4ccc5c(cnn5C)c4)c(-c4c(Cl)c(C)cc5[nH]ncc45)c3C)C2)C1"
unit_string = "µM"
modifier = "="
readout_value = 7.65

[[record]]
molecule = "CCOC(=O)C1=COC(C)(CCc2ccccc2)CC1=O (stereo not drawn)"
unit_string = "µM"
modifier = ">"
readout_value = 100

[[record]]
molecule = "COc1cc2nc3cc([N+](=O)[O-])ccc3c(NCCNCC(C)(C)O)c2cc1OC"
unit_string = "µM"
modifier = "="
readout_value = 1.93

